# ASSAY DETAILS: Pharmacokinetic study in mice
# Type: in vivo, C57BL/6J mice
# CONDITIONS: male, C57BL/6J, plasma, po; mouse, p.o. 10 mg/kg
METRIC NAME: Tmax (min)
I only need the number, in min, no unit after it.

# return recorded Tmax for entry N#Cc1ccc(Cc2nc(C(=O)NCC(=O)N3CC(F)(F)C[C@H]3C#N)cs2)cc1
30

* * *

# TARGET OR SYSTEM: hERG (Homo sapiens)
# Sequence (Q12809 whole entry): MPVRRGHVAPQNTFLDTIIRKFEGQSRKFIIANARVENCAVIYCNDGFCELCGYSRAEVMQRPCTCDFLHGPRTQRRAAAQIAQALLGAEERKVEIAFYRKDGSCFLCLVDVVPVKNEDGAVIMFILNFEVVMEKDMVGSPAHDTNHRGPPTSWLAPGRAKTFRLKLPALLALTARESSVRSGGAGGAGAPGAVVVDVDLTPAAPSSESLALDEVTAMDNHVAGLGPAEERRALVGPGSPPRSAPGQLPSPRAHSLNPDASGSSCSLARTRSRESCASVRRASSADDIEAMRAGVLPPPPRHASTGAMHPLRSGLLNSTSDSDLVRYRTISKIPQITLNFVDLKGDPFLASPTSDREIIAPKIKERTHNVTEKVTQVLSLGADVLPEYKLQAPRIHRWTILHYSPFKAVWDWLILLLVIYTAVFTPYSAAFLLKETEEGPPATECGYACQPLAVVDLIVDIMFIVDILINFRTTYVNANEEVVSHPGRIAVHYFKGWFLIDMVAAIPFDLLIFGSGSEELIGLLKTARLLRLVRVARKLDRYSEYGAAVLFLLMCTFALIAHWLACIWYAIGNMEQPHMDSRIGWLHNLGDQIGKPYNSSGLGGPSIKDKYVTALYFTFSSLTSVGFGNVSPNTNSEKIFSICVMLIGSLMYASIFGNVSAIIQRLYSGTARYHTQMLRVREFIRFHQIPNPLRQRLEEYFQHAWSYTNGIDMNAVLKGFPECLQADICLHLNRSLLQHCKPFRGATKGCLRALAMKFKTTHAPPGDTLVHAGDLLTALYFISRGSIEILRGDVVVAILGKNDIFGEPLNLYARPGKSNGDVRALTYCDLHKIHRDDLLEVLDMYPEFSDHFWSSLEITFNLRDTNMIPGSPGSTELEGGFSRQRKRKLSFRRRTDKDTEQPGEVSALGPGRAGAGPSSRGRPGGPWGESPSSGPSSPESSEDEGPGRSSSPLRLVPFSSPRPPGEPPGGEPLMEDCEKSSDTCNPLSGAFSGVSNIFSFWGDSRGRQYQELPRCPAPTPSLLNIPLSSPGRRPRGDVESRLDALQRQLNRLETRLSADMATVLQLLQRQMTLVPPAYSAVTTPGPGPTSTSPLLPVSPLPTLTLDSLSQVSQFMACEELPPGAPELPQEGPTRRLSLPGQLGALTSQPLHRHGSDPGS
METRIC NAME: IC50

Given N#Cc1ccc(Cc2nc(C(=O)NCC(=O)N3CC(F)(F)C[C@H]3C#N)cs2)cc1 [BR103354] , report its IC50 on hERG (Homo sapiens).
> 788 µM

Attribution: paper PMC7718273
